Where these numbers come from: paper PMC9414910

Recorded Uptake Liver, Mean for the following compounds
tested on: 22Rv1 tumor-bearing mice; experiment: Biodistribution in 22Rv1 tumor-bearing mice; conditions: 60 min p.i., 0.74 MBq, n = 3
QUANTITY NAME: Uptake Liver, Mean (ID%/g)

>  <COMPOUND>
O=C([O-])CN1CCN(CC(=O)[O-])CCN(CC(=O)NCC2CCC(C(=O)NC(Cc3ccc4ccccc4c3)C(=O)NCCCCC(NC(=O)NC(CCC(=O)O)C(=O)O)C(=O)O)CC2)CCN(CC(=O)O)CC1.[68Ga+3] (stereo not shown) [[^68Ga]Ga-PSMA-617, reference compound]

>  <READING>
0.51

$$$$
>  <COMPOUND>
O=C([O-])CN(CCN(CC(=O)[O-])Cc1cc(CCC(=O)NCCCCCC(=O)NCCCC[C@H](NC(=O)N[C@@H](CCC(=O)O)C(=O)O)C(=O)O)ccc1[O-])Cc1cc(CCC(=O)O)ccc1[O-].[68Ga+3].[OH3+] [[^68Ga]Ga-PSMA-11, reference compound]

>  <READING>
0.47

$$$$
>  <COMPOUND>
O=C([O-])CN1CCN(CC(=O)[O-])CCN(CC(=O)NCCCCCC(=O)NC(Cc2cnc3ccccc3c2)C(=O)NCCCCC(NC(=O)NC(CCC(=O)O)C(=O)O)C(=O)O)CCN(CC(=O)O)CC1.[68Ga+3] (stereo not shown) [[^68Ga]Ga-PSMA-Q-2]

>  <READING>
0.52

$$$$
>  <COMPOUND>
O=C([O-])CN1CCN(CC(=O)[O-])CCN(CC(=O)NCC2CCC(C(=O)NC(Cc3ccncc3)C(=O)NCCCCC(NC(=O)NC(CCC(=O)O)C(=O)O)C(=O)O)CC2)CCN(CC(=O)O)CC1.[68Ga+3] (stereo not shown) [[^68Ga]Ga-PSMA-4PY]

>  <READING>
0.47

$$$$

---

system: 22Rv1 tumor-bearing mice; assay: Biodistribution in 22Rv1 tumor-bearing mice; settings: 30 min p.i., 0.74 MBq, n = 3

>  <MOLECULE>
O=C([O-])CN1CCN(CC(=O)[O-])CCN(CC(=O)NCC2CCC(C(=O)NC(Cc3cnc4ccccc4c3)C(=O)NCCCCC(NC(=O)NC(CCC(=O)O)C(=O)O)C(=O)O)CC2)CCN(CC(=O)O)CC1.[68Ga+3] (stereo not shown) [[^68Ga]Ga-PSMA-Q]

>  <Uptake Spleen, Mean [ID%/g]>
1.73

$$$$
>  <MOLECULE>
O=C([O-])CN1CCN(CC(=O)[O-])CCN(CC(=O)NCC2CCC(C(=O)NC(Cc3ccc4ccccc4c3)C(=O)NCCCCC(NC(=O)NC(CCC(=O)O)C(=O)O)C(=O)O)CC2)CCN(CC(=O)O)CC1.[68Ga+3] (stereo not shown) [[^68Ga]Ga-PSMA-617, reference compound]

>  <Uptake Spleen, Mean [ID%/g]>
1.31

$$$$
>  <MOLECULE>
O=C([O-])CN1CCN(CC(=O)[O-])CCN(CC(=O)NCC2CCC(C(=O)NC(Cc3ccncc3)C(=O)NCCCCC(NC(=O)NC(CCC(=O)O)C(=O)O)C(=O)O)CC2)CCN(CC(=O)O)CC1.[68Ga+3] (stereo not shown) [[^68Ga]Ga-PSMA-4PY]

>  <Uptake Spleen, Mean [ID%/g]>
0.47

$$$$
>  <MOLECULE>
O=C([O-])CN(CCN(CC(=O)[O-])Cc1cc(CCC(=O)NCCCCCC(=O)NCCCC[C@H](NC(=O)N[C@@H](CCC(=O)O)C(=O)O)C(=O)O)ccc1[O-])Cc1cc(CCC(=O)O)ccc1[O-].[68Ga+3].[OH3+] [[^68Ga]Ga-PSMA-11, reference compound]

>  <Uptake Spleen, Mean [ID%/g]>
0.53

$$$$
